study_target: EZH1 (Homo sapiens, UniProt Q92800)
Sequence (Q92800 whole entry): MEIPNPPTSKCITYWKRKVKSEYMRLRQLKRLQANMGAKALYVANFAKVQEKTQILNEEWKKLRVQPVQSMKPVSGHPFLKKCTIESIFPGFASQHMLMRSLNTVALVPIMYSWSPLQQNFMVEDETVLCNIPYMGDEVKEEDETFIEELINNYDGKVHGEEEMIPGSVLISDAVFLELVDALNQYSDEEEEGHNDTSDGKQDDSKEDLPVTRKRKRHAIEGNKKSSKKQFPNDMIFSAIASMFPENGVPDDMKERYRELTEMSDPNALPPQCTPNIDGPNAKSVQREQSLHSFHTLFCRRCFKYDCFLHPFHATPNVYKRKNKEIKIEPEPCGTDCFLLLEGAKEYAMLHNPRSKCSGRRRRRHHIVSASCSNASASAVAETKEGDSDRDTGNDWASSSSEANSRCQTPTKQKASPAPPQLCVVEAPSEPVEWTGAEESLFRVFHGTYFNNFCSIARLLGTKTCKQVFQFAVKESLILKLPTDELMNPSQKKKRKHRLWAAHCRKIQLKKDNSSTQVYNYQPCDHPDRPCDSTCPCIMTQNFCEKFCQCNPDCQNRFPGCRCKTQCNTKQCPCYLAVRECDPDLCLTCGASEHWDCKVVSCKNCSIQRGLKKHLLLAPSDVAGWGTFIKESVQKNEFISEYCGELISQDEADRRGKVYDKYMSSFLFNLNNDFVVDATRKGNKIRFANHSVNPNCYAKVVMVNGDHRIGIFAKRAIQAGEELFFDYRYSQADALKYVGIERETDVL
Sequence (O75530 whole entry partner): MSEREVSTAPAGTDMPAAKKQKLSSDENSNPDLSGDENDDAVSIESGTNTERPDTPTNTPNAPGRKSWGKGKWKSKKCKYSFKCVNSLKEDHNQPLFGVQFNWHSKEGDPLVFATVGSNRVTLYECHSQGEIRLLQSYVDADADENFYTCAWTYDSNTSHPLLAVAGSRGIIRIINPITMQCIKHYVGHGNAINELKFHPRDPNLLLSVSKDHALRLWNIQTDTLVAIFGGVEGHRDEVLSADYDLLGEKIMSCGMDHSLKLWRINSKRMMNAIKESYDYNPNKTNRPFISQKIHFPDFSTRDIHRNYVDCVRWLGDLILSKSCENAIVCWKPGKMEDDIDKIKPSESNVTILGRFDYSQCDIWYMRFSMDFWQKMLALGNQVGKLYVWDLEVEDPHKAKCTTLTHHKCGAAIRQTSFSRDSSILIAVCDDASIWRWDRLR
Sequence (Q15022 whole entry partner): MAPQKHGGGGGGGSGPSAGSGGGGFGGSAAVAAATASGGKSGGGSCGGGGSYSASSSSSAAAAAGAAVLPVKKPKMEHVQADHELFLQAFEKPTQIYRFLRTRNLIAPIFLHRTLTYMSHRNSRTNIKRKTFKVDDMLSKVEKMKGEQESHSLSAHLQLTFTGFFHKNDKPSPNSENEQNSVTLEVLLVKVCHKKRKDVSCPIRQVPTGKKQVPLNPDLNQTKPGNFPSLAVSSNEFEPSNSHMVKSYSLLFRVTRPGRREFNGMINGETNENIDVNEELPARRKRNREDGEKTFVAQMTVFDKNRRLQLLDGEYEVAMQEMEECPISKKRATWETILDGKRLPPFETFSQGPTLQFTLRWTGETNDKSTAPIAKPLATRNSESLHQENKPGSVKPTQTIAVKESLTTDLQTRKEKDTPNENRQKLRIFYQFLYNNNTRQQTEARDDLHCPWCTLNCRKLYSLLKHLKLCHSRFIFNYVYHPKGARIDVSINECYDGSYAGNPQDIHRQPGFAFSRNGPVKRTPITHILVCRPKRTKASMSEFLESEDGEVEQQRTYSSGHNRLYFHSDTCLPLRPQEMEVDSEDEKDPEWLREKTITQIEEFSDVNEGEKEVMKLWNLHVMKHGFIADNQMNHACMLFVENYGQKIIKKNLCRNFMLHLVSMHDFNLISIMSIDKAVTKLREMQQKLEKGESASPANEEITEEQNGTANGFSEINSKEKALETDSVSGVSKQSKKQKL
Sequence (Q09028 whole entry partner): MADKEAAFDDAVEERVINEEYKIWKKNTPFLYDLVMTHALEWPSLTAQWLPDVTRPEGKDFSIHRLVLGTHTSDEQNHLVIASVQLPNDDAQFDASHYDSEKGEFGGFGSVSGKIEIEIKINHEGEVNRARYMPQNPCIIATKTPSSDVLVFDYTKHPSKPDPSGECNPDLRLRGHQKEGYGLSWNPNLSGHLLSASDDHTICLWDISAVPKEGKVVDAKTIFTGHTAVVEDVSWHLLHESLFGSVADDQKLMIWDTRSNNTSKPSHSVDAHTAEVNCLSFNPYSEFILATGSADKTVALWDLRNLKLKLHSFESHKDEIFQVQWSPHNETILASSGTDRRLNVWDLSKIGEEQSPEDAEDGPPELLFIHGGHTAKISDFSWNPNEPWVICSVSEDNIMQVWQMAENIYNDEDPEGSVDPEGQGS
Sequence (Q6ZN18 whole entry partner): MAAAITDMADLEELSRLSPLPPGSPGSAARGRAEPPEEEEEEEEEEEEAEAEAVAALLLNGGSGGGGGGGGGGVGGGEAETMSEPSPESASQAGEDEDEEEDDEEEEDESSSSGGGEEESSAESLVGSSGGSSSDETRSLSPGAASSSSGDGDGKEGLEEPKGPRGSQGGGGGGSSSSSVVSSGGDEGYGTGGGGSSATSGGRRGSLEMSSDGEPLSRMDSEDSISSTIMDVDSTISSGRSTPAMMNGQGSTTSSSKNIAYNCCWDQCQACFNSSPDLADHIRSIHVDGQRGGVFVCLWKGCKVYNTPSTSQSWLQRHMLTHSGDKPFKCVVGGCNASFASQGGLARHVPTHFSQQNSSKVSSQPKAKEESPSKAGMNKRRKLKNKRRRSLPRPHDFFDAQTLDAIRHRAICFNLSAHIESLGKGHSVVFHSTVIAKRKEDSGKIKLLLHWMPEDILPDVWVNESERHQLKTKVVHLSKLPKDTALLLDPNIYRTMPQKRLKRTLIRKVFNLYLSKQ
test_method_notes: Radioisotope-based methyltransferase assay (selectivity)

compound | IC50
Cc1c(C(=O)NC(CCC2CC2)C(=O)Nc2ccc(C#N)cc2)[nH]c2c1C(=O)CC(C)(C)C2 (stereo not shown) [RK-701] | > 100 µM

###

study_target: G9a SET domain (Homo sapiens, UniProt Q96KQ7)
Construct: the human G9a SET domain (residues 913–1193) was synthesized using the E. coli cell-free synthesis method; made in house; host or cells: E. coli cell-free synthesis
Sequence (Q96KQ7 913-1193): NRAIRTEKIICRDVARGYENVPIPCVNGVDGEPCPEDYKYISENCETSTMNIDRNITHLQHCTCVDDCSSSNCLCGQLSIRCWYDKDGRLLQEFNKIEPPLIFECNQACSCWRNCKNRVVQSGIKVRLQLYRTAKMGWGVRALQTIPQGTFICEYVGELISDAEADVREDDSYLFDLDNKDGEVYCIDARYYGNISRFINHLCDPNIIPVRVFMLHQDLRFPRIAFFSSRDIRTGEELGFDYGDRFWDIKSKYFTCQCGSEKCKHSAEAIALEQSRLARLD
test_method_notes: Surface plasmon resonance (SPR)
Format: binding
study_conditions: mean of three kinetics runs; read-out: KD
observation_type: Kd

structure_as_smiles | study_target | observation_type | experimental_result
Cc1c(C(=O)N[C@H](CCC2CC2)C(=O)Nc2ccc(C#N)cc2)[nH]c2c1C(=O)CC(C)(C)C2 | G9a SET domain (Homo sapiens, UniProt Q96KQ7) | Kd | > 20 µM

###

test_method_notes: Liver microsomal stability assay, human
Assay type: in vitro ADME
study_conditions: human, liver microsomes, Metabolic stability, % remaining of RK-701, Human; Time 30; replicate values

molecule | remaining at 30 min, 1 µM (%)
Cc1c(C(=O)NC(CCC2CC2)C(=O)Nc2ccc(C#N)cc2)[nH]c2c1C(=O)CC(C)(C)C2 (stereo not shown) | 70.4

###

test_method_notes: Liver microsomal stability assay, dog
Assay type: in vitro ADME
study_conditions: dog, liver microsomes, Metabolic stability, % remaining of RK-701, Dog; Time 5; replicate values
observation_type: remaining at 5 min, 1 µM (%)

compound | units_label | experimental_result
Cc1c(C(=O)NC(CCC2CC2)C(=O)Nc2ccc(C#N)cc2)[nH]c2c1C(=O)CC(C)(C)C2 (stereo not shown) | % | 72.6

###

test_method_notes: Pharmacokinetic (PK) assay
Format: in vivo, mice
study_conditions: male, Crl:CD1 ICR, mouse, ip; mice, plasma, single intraperitoneal 25 mg/kg

molecule | units_label | AUC(0-inf)
Cc1c(C(=O)NC(CCC2CC2)C(=O)Nc2ccc(C#N)cc2)[nH]c2c1C(=O)CC(C)(C)C2 (stereo not shown) | µM·h | 418

###

study_target: PRMT4 (Homo sapiens)
Construct: purchased Reaction Biology
Sequence (Q86X55 1-608): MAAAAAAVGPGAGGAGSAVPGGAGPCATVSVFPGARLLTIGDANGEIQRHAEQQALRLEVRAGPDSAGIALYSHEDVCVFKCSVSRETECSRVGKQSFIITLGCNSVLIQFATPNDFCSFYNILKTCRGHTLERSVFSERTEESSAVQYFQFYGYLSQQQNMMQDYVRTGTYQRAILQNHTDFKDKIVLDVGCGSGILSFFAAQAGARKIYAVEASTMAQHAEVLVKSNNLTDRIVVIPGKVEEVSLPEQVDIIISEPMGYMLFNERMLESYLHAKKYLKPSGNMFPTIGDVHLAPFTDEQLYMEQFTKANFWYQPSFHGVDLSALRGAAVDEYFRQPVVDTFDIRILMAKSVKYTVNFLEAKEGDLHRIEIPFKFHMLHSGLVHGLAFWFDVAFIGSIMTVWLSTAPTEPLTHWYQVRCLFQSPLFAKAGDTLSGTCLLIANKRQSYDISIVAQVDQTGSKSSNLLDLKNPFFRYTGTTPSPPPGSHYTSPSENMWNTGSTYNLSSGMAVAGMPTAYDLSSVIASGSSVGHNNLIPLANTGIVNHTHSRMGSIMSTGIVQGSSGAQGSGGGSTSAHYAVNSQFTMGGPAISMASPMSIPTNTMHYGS
test_method_notes: Radioisotope-based methyltransferase assay (selectivity)
Assay type: biochemical
study_conditions: PRMT4, 1 μM SAM
pIC50: −log10 of the molar value.

compound | pIC50
Cc1c(C(=O)NC(CCC2CC2)C(=O)Nc2ccc(C#N)cc2)[nH]c2c1C(=O)CC(C)(C)C2 (stereo not shown) | < 4.00
